Target: Zap1 (UniProt P47043)
Sequence: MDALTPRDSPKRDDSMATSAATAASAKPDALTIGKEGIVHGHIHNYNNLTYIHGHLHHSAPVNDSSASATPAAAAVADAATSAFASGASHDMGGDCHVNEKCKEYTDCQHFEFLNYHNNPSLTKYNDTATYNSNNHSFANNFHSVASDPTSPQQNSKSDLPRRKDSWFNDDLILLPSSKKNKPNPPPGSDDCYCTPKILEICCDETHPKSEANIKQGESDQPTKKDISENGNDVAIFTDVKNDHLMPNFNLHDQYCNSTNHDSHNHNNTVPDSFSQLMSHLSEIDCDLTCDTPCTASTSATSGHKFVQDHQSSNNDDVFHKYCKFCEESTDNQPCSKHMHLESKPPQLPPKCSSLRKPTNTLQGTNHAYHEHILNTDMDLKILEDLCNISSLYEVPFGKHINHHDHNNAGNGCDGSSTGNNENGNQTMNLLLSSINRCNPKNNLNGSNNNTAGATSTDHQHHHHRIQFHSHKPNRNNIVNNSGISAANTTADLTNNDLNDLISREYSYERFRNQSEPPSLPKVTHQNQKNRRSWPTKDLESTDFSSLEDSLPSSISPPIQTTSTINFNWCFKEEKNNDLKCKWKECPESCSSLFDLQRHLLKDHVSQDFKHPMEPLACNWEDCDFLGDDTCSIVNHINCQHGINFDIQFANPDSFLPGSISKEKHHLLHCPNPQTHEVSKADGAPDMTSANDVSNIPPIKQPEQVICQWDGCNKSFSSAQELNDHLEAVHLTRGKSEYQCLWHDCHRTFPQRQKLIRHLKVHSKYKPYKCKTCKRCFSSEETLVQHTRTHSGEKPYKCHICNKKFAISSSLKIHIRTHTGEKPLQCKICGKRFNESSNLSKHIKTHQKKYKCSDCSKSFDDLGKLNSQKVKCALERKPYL
Experiment: PBM E-score (8-mer binding enrichment) (E-score (-0.5 to 0.5)); higher = stronger / more preferred TF binding
Conditions: protein concentration: 200 nM; construct: GST-full length
Over roughly 33,000 sequences, “E-score (-0.5 to 0.5)” has its median near -0.021; the highest 2% begin near 0.32. The list comes from a sample in which the highest values are over-represented; it also holds close analogues and randomly drawn sequences.
Entries and their measured PBM E-score follow.
readout kind: PBM E-score

# sequence entry, test result
data = [
    ("CCAATTAC", 0.103),
    ("CCGGTGTC", 0.0219),
    ("AGGGTAAG", 0.373),
    ("AGGGTATG", 0.395),
    ("AACCTTCG", 0.305),
    ("AGGGTAGA", 0.135),
    ("ACCTCGTG", 0.348),
    ("AGGGACTA", -0.104),
    ("ACTATAGG", 0.0613),
    ("GTGAGTGA", -0.147),
    ("AAGGTATT", 0.199),
    ("AACCCTCC", 0.185),
    ("AGGGTTCG", 0.0919),
    ("CGTTCCCA", -0.125),
    ("AAGGTACG", 0.0328),
    ("CCTATAGG", 0.346),
    ("GCTGGGGA", -0.0703),
    ("CCTGGTGA", 0.0199),
    ("GACCTAGC", -0.0032),
    ("CACCCGGG", 0.129),
    ("CAGGTAAA", 0.133),
    ("GTCGATGA", -0.149),
    ("CACCTTAA", 0.207),
    ("GTCTTCTA", -0.0319),
    ("CGAGTAAG", 0.119),
    ("CTGAAGCC", -0.31),
    ("CGCTTAGC", -0.239),
    ("ACCTCGTC", 0.0929),
    ("AACCTTTG", 0.377),
    ("CGATGCCG", -0.11),
    ("ACCTCGAG", 0.349),
    ("CGGGTATC", 0.252),
    ("ACCTCGAT", 0.245),
    ("AGTTCAGG", 0.0101),
    ("CCCTCGAG", 0.159),
    ("CAAGGTTA", 0.466),
    ("AGGGTTCA", 0.146),
    ("CACCCGGA", 0.235),
    ("GGTTGTTA", 0.355),
    ("ATCGAACG", -0.183),
    ("TTATCAAA", 0.2),
    ("CACCCTCA", 0.257),
    ("AACTGGCG", -0.0757),
    ("CCCTTCAG", 0.122),
    ("ACCTCGTA", 0.189),
    ("CAGGTTCC", 0.0995),
    ("AAGGTCAA", 0.279),
    ("CCCCCGGG", 0.167),
    ("CGGGTATA", 0.317),
    ("ACCCCGGG", 0.34),
    ("AACCCGGG", 0.324),
    ("AGTGCCCG", -0.203),
    ("GTGATAAC", 0.251),
    ("AAGGTCGA", 0.176),
    ("ACGGTCAG", 0.0381),
    ("ACGGTCAT", 0.359),
    ("AATATCCT", 0.00302),
    ("GAAGGTTA", 0.437),
    ("GAGGTCAC", 0.392),
    ("CACCCTGC", 0.331),
    ("GCCATATA", 0.0242),
    ("ATGGTTCC", 0.21),
    ("AGCAGCCT", -0.168),
    ("GGTTGTAC", 0.336),
    ("AGTTGTGA", 0.193),
    ("ACGGTCAA", 0.177),
    ("AAGGTACC", 0.445),
    ("AACCCTGC", 0.385),
]
